target: IRAK1 (Homo sapiens); assay: RBC HotSpot Kinase Assay, IRAK1; conditions: IRAK1 IC50
Sequence (P51617 whole entry): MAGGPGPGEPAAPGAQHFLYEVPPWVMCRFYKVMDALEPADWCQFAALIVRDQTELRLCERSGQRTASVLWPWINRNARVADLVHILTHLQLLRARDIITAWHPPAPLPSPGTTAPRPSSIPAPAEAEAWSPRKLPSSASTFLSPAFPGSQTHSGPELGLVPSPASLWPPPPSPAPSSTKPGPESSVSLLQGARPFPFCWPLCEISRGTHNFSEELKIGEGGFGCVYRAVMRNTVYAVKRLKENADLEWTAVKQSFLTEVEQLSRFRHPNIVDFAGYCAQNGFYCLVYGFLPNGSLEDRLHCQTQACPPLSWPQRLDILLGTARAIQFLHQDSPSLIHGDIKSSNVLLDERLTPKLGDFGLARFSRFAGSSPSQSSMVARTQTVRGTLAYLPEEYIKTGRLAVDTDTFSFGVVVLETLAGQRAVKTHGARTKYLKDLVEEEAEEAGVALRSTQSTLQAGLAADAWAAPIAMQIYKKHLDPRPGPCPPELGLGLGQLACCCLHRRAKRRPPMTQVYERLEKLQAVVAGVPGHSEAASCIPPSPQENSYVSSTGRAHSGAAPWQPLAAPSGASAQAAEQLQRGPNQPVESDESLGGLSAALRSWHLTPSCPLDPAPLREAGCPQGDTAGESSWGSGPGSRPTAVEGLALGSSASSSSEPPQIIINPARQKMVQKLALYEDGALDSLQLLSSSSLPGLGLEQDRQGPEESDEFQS
# IC50 binned as low interval (below 8 nM), middle interval (8 nM to below 60 nM), high interval (60 nM or more)

Q: Which class is correct for the following molecule? FC(F)COc1ccn2c(-c3ccnc(N[C@H]4CNCC[C@@H]4F)n3)cnc2c1
Ans: middle interval

Q: Likewise for COc1cc2ncc(-c3ccnc(N[C@@H]4CCCNC4)n3)n2cc1C(C)(C)O ?
Ans: low interval

Q: Likewise for COc1cc2ncc(-c3cncc(N[C@H]4CNCC[C@@H]4F)n3)n2cc1C(C)(C)O ?
Ans: low interval

Q: Likewise for COc1cc2ncc(-c3cncc(N[C@H]4CNCC[C@@H]4F)n3)n2nc1C(C)(O)C(F)(F)F (single isomer, unassigned) [Compound 79] ?
Ans: high interval

Q: Likewise for CC(O)(c1cn2c(-c3ccnc(N[C@H]4CNCC[C@@H]4F)n3)cnc2cn1)C(F)(F)F (single isomer, unassigned) [Compound 70] ?
Ans: middle interval

Q: Likewise for COc1cc2ncc(-c3cncc(N[C@@H]4CCCNC4)n3)n2cc1C(C)(O)C(F)(F)F (single isomer, unassigned) [Compound 64] ?
Ans: low interval

Q: Likewise for CC(C)(O)c1ccc2ncc(-c3cncc(N[C@@H]4CCCNC4)n3)n2c1 ?
Ans: high interval

Q: Likewise for COc1cc2ncc(-c3cncc(N[C@H]4CNCC[C@@H]4F)n3)n2nc1C1CC1 ?
Ans: middle interval

Q: Likewise for CC(C)Oc1ccn2c(-c3nccc(N[C@H]4CNC[C@@H]4F)n3)cnc2c1 ?
Ans: high interval

Q: Likewise for COc1cc2ncc(-c3cncc(N[C@H]4CNC[C@@H]4F)n3)n2cc1C(C)(O)C(F)(F)F (single isomer, unassigned) ?
Ans: low interval

Q: Likewise for CC(O)(c1cn2c(-c3ccnc(N[C@@H]4CCCNC4)n3)cnc2cn1)C(F)(F)F (single isomer, unassigned) [Compound 67] ?
Ans: middle interval

Q: Likewise for FC(F)Oc1ccn2c(-c3cncc(N[C@H]4CNC[C@@H]4F)n3)cnc2c1 ?
Ans: high interval

###

target: FLT3 (Homo sapiens); assay: DiscoverX KINOMEscan competition binding, FLT3
Sequence (P36888 27-993): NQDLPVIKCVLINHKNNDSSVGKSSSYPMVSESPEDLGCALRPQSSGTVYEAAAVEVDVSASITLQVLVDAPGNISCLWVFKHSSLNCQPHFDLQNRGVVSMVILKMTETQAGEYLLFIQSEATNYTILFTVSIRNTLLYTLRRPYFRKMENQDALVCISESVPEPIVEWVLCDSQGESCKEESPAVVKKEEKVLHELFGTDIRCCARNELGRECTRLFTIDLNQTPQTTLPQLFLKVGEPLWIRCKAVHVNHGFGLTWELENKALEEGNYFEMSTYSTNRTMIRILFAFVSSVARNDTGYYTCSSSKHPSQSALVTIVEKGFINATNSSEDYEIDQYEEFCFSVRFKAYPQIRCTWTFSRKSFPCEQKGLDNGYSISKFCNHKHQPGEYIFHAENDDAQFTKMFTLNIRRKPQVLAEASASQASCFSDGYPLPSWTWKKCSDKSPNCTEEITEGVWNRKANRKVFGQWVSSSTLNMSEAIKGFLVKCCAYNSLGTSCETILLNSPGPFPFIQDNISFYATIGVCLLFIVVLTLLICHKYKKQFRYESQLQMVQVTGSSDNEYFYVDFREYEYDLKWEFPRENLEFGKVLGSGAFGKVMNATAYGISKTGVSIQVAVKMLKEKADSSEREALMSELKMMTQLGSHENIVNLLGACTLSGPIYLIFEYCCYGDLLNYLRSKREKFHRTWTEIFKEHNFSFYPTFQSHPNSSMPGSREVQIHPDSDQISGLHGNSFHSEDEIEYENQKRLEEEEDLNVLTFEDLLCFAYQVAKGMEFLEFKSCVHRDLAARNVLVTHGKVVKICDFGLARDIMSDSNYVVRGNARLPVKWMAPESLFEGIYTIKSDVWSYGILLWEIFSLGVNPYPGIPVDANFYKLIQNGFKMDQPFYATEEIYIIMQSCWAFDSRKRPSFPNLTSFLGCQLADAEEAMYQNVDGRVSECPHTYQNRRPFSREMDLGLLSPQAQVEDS
readoutKind: log10 Kd (log10 of the value in nM)
In our notation, the value equals log10 of Kd in nM.

Q: # log10 Kd lookup, item COc1cc2ncc(-c3ccnc(N[C@@H]4CCCNC4)n3)n2cc1C(C)(C)O
Ans: -0.55

Q: Likewise for COc1cc2ncc(-c3ccnc(N[C@H]4CNCC[C@@H]4F)n3)n2nc1C1CC1 ?
Ans: -0.66

Q: Likewise for COc1cc2ncc(-c3cncc(N[C@H]4CNCC[C@@H]4F)n3)n2nc1C1CC1 ?
Ans: -0.72

Q: Likewise for CC(O)(c1cn2c(-c3ccnc(N[C@H]4CNCC[C@@H]4F)n3)cnc2cn1)C(F)(F)F (single isomer, unassigned) ?
Ans: 0.72

Q: Likewise for F[C@H]1CCNC[C@@H]1Nc1cncc(-c2cnc3cc(OC4CC4)ccn23)n1 ?
Ans: 0.28

Q: Likewise for COc1cc2ncc(-c3cncc(N[C@H]4CNC[C@@H]4F)n3)n2nc1C1CC1 ?
Ans: 0.26

Q: Likewise for COc1cc2ncc(-c3ccnc(N[C@H]4CNC[C@@H]4F)n3)n2nc1C1CC1 ?
Ans: -0.59
